protocol_description: Dynamic light scattering: LNP particle size and PDI
Format: physicochemical
condition_description: LNP compositions for in vivo mouse study; four formulations (F1-F4) of the lipid compound pooled, or pools of four compounds (sixteen compositions)
attribute_measured: Particle Size (nm)

>>> test_result("CCCCC/C=C\\CCOC(=O)CCCCCC(=O)OCC(COC(=O)CCCCCC(=O)OCC/C=C\\CCCCC)(COC(=O)CCCCCC(=O)OCC/C=C\\CCCCC)COC(=O)CCC(CCCCCC)OC(=O)NCCN1CCCC1 (stereo not drawn) [Compound 7]")
89.3
>>> test_result("CCCCC/C=C\\CCOC(=O)CCCCCC(=O)OCC(COC(=O)CCCCCCOC(=O)C(CCCC)CCCCCC)(COC(=O)CCCCCC(=O)OCC/C=C\\CCCCC)COC(=O)CCC(CCCCCC)OC(=O)NCCN1CCCC1 (stereo not drawn) [Compound 16]")
82.6
>>> test_result("CCCCC/C=C\\C/C=C\\CCCCCCCC(=O)OCC(COC(=O)CCCCCCC/C=C\\C/C=C\\CCCCC)(COC(=O)CCC(CCCCCC)OC(=O)NCCN1CCCC1)COC(=O)CC12CC3CC(CC(C3)C1)C2 (stereo not drawn) [Compound 5]")
84.4
>>> test_result("CCCCCCCCOC(CCC(=O)OCC(COC(=O)CCCCCCOC(=O)C(CCCC)CCCCCC)(COC(=O)CCC(CCCCCC)OC(=O)NCCN1CCCC1)COC(=O)CCC(OCCCCCCCC)OCCCCCCCC)OCCCCCCCC (stereo not drawn) [Compound 20]")
79
>>> test_result("CCCCCCCC/C=C\\CCCCCCCC(=O)OCC(COC(=O)CCCCCCC/C=C\\CCCCCCCC)(COC(=O)CCC(CCCCCC)OC(=O)NCCN1CCCC1)COC(=O)CC12CC3CC(CC(C3)C1)C2 (stereo not drawn) [Compound 3]")
89.1
>>> test_result("CCCCC/C=C\\CCOC(=O)CCCCCCC(=O)OCC(COC(=O)CCCCCCC(=O)OCC/C=C\\CCCCC)(COC(=O)CCC(CCCCCC)OC(=O)NCCN1CCCC1)COC(=O)CCC(OCCCCCCCC)OCCCCCCCC (stereo not drawn) [Compound 12]")
83.7
>>> test_result("CCCCC/C=C\\C/C=C\\CCCCCCCC(=O)OCC(COC(=O)CCCCCCC/C=C\\C/C=C\\CCCCC)(COC(=O)CCC(CCCCCC)OC(=O)NCCN1CCCC1)COC(=O)CCC(OCCCCCCCC)OCCCCCCCC (stereo not drawn) [Compound 6]")
77.9
>>> test_result("CCCCC/C=C\\CCOC(=O)CCCCC(=O)OCC(COC(=O)CCCCC(=O)OCC/C=C\\CCCCC)(COC(=O)CCC(CCCCCC)OC(=O)NCCN1CCCC1)COC(=O)CC12CC3CC(CC(C3)C1)C2 (stereo not drawn) [Compound 14]")
82.9
>>> test_result("CCCCC/C=C\\CCOC(=O)CCCCCCC(=O)OCC(COC(=O)CCCCCCC(=O)OCC/C=C\\CCCCC)(COC(=O)CCC(CCCCCC)OC(=O)NCCN1CCCC1)COC(=O)CC12CC3CC(CC(C3)C1)C2 (stereo not drawn) [Compound 11]")
86

* * *

protocol_description: Plate-based fluorescence (RiboGreen) assay: nucleic acid cargo content and encapsulation efficiency of LNPs
Assay type: physicochemical
condition_description: LNP, Formulation F2, N/P 6
Each item that follows carries a reported EE (%) N/P:6.
attribute_measured: EE (%) N/P:6

>>> test_result("CCCCC/C=C\\CCOC(=O)CCCCCC(=O)OCC(COC(=O)CCCCCC(=O)OCC/C=C\\CCCCC)(COC(=O)CCC(CCCCCC)OC(=O)NCCN1CCCC1)COC(=O)CCC(OCCCCCCCC)OCCCCCCCC (stereo not drawn) [Compound 9]")
100
>>> test_result("CCCCC/C=C\\C/C=C\\CCCCCCCC(=O)OCC(COC(=O)CCCCCCC/C=C\\C/C=C\\CCCCC)(COC(=O)CCC(CCCCCC)OC(=O)NCCN1CCCC1)COC(=O)CC12CC3CC(CC(C3)C1)C2 (stereo not drawn) [Compound 5]")
96
>>> test_result("CCCCC/C=C\\CCOC(=O)CCCCCCC(=O)OCC(COC(=O)CCCCCCC(=O)OCC/C=C\\CCCCC)(COC(=O)CCC(CCCCCC)OC(=O)NCCN1CCCC1)COC(=O)CCC(OCCCCCCCC)OCCCCCCCC (stereo not drawn) [Compound 12]")
98

* * *

protocol_description: Dynamic light scattering: LNP particle size and PDI
Assay type: physicochemical
condition_description: LNP, Formulation F1, N/P 6
attribute_measured: PDI N/P:6

>>> test_result("CCCCC/C=C\\C/C=C\\CCCCCCCC(=O)OCC(COC(=O)CCCCCCC/C=C\\C/C=C\\CCCCC)(COC(=O)CCCCCCC/C=C\\C/C=C\\CCCCC)COC(=O)CCC(CCCCCC)OC(=O)NCCN1CCCC1 (centres unmarked) [Compound 2]")
0.16
>>> test_result("CCCCCCCC/C=C\\CCCCCCCC(=O)OCC(COC(=O)CCCCCCC/C=C\\CCCCCCCC)(COC(=O)CCC(CCCCCC)OC(=O)NCCN1CCCC1)COC(=O)CC12CC3CC(CC(C3)C1)C2 (centres unmarked) [Compound 3]")
0.09
>>> test_result("CCCCCCCC/C=C\\CCCCCCCC(=O)OCC(COC(=O)CCCCCCC/C=C\\CCCCCCCC)(COC(=O)CCC(CCCCCC)OC(=O)NCCN1CCCC1)COC(=O)CCC(OCCCCCCCC)OCCCCCCCC (centres unmarked) [Compound 4]")
0.063
>>> test_result("CCCCC/C=C\\CCOC(=O)CCCCCCC(=O)OCC(COC(=O)CCCCCCC(=O)OCC/C=C\\CCCCC)(COC(=O)CCC(CCCCCC)OC(=O)NCCN1CCCC1)COC(=O)CCC(OCCCCCCCC)OCCCCCCCC (centres unmarked) [Compound 12]")
0.16
>>> test_result("CCCCCCC(CCC(=O)OCC(COC(=O)CCCCCCOC(=O)C(CCCC)CCCCCC)(COC(=O)CCCCCCOC(=O)C(CCCC)CCCCCC)COC(=O)CCCCCCOC(=O)C(CCCC)CCCCCC)OC(=O)NCCN1CCCC1 (centres unmarked) [Compound 18]")
0.04

* * *

protocol_description: Plate-based fluorescence (RiboGreen) assay: nucleic acid cargo content and encapsulation efficiency of LNPs
Format: physicochemical
condition_description: LNP, Formulation F2, N/P 6
EE (%) N/P:6 values by entry
attribute_measured: EE (%) N/P:6

>>> test_result("CCCCCCCC/C=C\\CCCCCCCC(=O)OCC(COC(=O)CCCCCCC/C=C\\CCCCCCCC)(COC(=O)CCCCCCC/C=C\\CCCCCCCC)COC(=O)CCC(CCCCCC)OC(=O)NCCN1CCCC1 (stereo not drawn) [Compound 1]")
100
>>> test_result("CCCCC/C=C\\CCOC(=O)CCCCCC(=O)OCC(COC(=O)CCCCCCOC(=O)C(CCCC)CCCCCC)(COC(=O)CCCCCC(=O)OCC/C=C\\CCCCC)COC(=O)CCC(CCCCCC)OC(=O)NCCN1CCCC1 (stereo not drawn) [Compound 16]")
99
>>> test_result("CCCCCCC(CCC(=O)OCC(COC(=O)CCCCCCOC(=O)C(CCCC)CCCCCC)(COC(=O)CCCCCCOC(=O)C(CCCC)CCCCCC)COC(=O)CCCCCCOC(=O)C(CCCC)CCCCCC)OC(=O)NCCN1CCCC1 (stereo not drawn) [Compound 18]")
99

* * *

System: mouse organs
protocol_description: In vivo activity screening in mice: organ mean total flux (p/s) of luciferase activity after injection of F2 LNP pools (Table 6, FIG. 7A-7C)
condition_description: Mouse 6, dose 0.5 mg/kg, luciferase mRNA
Marks after values point to notes of the source that are not given here.
attribute_measured: Organ Mean Total Flux Kidney

>>> test_result("CCCCCCCCC(C)OC(=O)CCCCCC(=O)OCC(COC(=O)CCCCCC(=O)OC(C)CCCCCCCC)(COC(=O)CCCCCC(=O)OC(C)CCCCCCCC)COC(=O)CCC(CCCCCC)OC(=O)NCCN1CCCC1 (centres unmarked) [Compound 40]")
"5.1 p/s (×10^6)"
>>> test_result("CCCCC/C=C\\C/C=C\\CCCCCCCCC(CCCCCCCC/C=C\\C/C=C\\CCCCC)OC(=O)CCCN(C)C [MC3, reference compound]")
"3.9 p/s (×10^6)"
>>> test_result("CCCCCCCCOC(=O)CCCCCCC(=O)OCC(COC(=O)CCCCCCC(=O)OCCCCCCCC)(COC(=O)CCCCCCC(=O)OCCCCCCCC)COC(=O)CCC(CCCCCC)OC(=O)NCCN1CCCC1 (centres unmarked) [Compound 33]")
"3.0 p/s (×10^6)"
>>> test_result("CCCCCCCC(C)OC(=O)CCCCCC(=O)OCC(COC(=O)CCCCCC(=O)OC(C)CCCCCCC)(COC(=O)CCCCCC(=O)OC(C)CCCCCCC)COC(=O)CCC(CCCCCC)OC(=O)NCCN1CCCC1 (centres unmarked) [Compound 38]")
"8.1 p/s (×10^6)"
>>> test_result("CCCCCCCCCOC(=O)CCCCCC(=O)OCC(COC(=O)CCCCCC(=O)OCCCCCCCCC)(COC(=O)CCCCCC(=O)OCCCCCCCCC)COC(=O)CCC(CCCCCC)OC(=O)NCCN1CCCC1 (centres unmarked) [Compound 24]")
"5.7 p/s (×10^6)"

Taken from patent US20260234115A1.
